We begin with a simple list: items and their reported thermal shift relative to vanadate control.
- System: Carboxy-terminal domain RNA polymerase II polypeptide A small phosphatase 1 (Homo sapiens) (UniProt Q9GZU7)
- Sequence (Q9GZU7 76-261 limits assumed): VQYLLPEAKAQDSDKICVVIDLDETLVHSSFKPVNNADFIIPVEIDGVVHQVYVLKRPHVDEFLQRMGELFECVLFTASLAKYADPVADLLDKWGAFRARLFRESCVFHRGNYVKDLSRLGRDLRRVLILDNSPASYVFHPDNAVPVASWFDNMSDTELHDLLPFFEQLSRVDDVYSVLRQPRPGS
- Procedure details: Scp-1 binding by thermal shift, confirmation, orthogonal assay for Scp-1 inhibitor project, biophysical, differential scanning fluorimetry (AID 540329);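 note: 0% = Tm of DMSO wells and 100% = Tm with sodium orthovanadate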
- Condition info: Recombinant SCP1, Sypro Orange thermal shift Tm; at 40 µM; stronger effect = higher value
Some of the results follow. Active and inactive are the calls of the source.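 Rule for the calls: active = substances whose mean melting-temperature shift, as a percentage of the reference inhibitor's shift, reaches about 5.3% (limit read from the data); inactive = the rest.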

Molecule | Value observed
O=c1c2cc(-c3ccccc3)sc2nc2n1N=C(c1cccs1)CS2 | 11.4% (active)

The measured thermal shift relative to vanadate control associated with O=C(Nc1cc(S(=O)(=O)N2CCCCC2)ccc1Cl)C1COc2ccccc2O1 (configuration not stated) reads -12% (inactive)

thermal shift relative to vanadate control reported for this molecule `O=C(c1ccc(CS(=O)(=O)c2ccccc2)o1)N1CCN(c2ccccc2)CC1` : -3.55% (inactive)

What the record says about `CSc1ccc(/C=N/NC(=O)c2cccc(Cl)c2)cc1` : thermal shift relative to vanadate control is 9.78% (active)

// sample `COc1ccc(S(=O)(=O)c2c[nH]c(=S)[nH]c2=O)cc1Cl` , its thermal shift relative to vanadate control was 13.1% (active)

Entry `O=S(=O)(Nc1ccccc1Cl)c1cccc2nsnc12` ; thermal shift relative to vanadate control = -16.9% (inactive)

thermal shift relative to vanadate control for `O=C(Cn1nnc(-c2ccc3c(c2)OCO3)n1)NCc1ccco1` is 2.67% (inactive)
